In this section, each of the molecules is paired with its reported IC50.
target: HSP90a protein (Homo sapiens); construct: purchased BPS Bioscience 50298; test: HSP90α-binding fluorescent polarization (FP) assay, BODIPY-labeled RNK04010 probe; settings: FP competition with RNK04010 (BODIPY-labeled), 5 nM, 300 min at 25° C.

Example cases with answers are listed next.
{"Smiles Repr": "C=CC(=O)N1CCN(c2nc(NCCC(=O)NCc3ccc(-n4c(O)nnc4-c4cc(CC)c(O)cc4O)cc3C(F)(F)F)nc3c2CCN(c2cc(O)cc4ccccc24)C3)CC1", "Value Observed": "> 1000 nM"}
{"Smiles Repr": "C=C(F)C(=O)N1CCN(c2nc(N3CCC(N4CCN(Cc5ccc(-n6c(O)nnc6-c6cc(C(C)C)c(O)cc6O)cc5)CC4)CC3)nc3c2CCN(c2cccc4cccc(Cl)c24)C3)C[C@@H]1CC#N", "Value Observed": "100 to 1000 nM"}
{"Smiles Repr": "C=CC(=O)N1CCN(c2nc(NCCC(=O)NCCc3ccc(CN4CCC(Cc5ccc(-n6c(C(=O)NCC(F)(F)F)nnc6-c6cc(C(C)C)c(O)cc6O)cc5)CC4)cc3)nc3c2CCN(c2cccc4ccccc24)C3)C[C@H]1CC#N", "Value Observed": "100 to 1000 nM"}
{"Smiles Repr": "C=CC(=O)N1CCN(c2nc(OC[C@@H]3C[C@H](N4CCC5(CCN(C(=O)C6CCN(Cc7ccc(-n8c(C(=O)NCC(F)(F)F)nnc8-c8cc(C(C)C)c(O)cc8O)cc7)CC6)CC5)CC4)CN3C)nc3c2CCN(c2cccc4cccc(Cl)c24)C3)C[C@@H]1CC#N", "Value Observed": "< 100 nM"}
{"Smiles Repr": "C=CC(=O)N1CCN(c2nc(OC[C@@H]3CC[C@H](C(=O)N4CCN(C(=O)C5CCN(Cc6ccc(-n7c(O)nnc7-c7cc(C)c(O)cc7O)cc6)CC5)CC4)N3C)nc3c2CCN(c2cccc4cccc(Cl)c24)C3)C[C@@H]1CC#N", "Value Observed": "< 100 nM"}
{"Smiles Repr": "C=CC(=O)N1CCN(c2nc(OC[C@@H]3C[C@H](N4CCC(C(=O)N5CCN(Cc6ccc(-n7c(C(=O)NCC(F)(F)C(F)(F)F)nnc7-c7cc(C(C)C)c(O)cc7O)cc6)CC5)CC4)CN3C)nc3c2CCN(c2cccc4cccc(Cl)c24)C3)C[C@@H]1CC#N", "Value Observed": "< 100 nM"}
{"Smiles Repr": "C=CC(=O)N1CCN(c2nc(OC[C@@H]3C[C@H](N4CCC5(CCN(Cc6cc(C(C)C)c(O)cc6O)CC5)CC4)CN3C)nc3c2CCN(c2cccc4cccc(Cl)c24)C3)C[C@@H]1CC#N", "Value Observed": "100 to 1000 nM"}

Kindly review the next molecule as well.
Prompt: Would you kindly share the measured IC50 for C=CC(=O)N1CCN(c2nc(OC[C@@H]3C[C@H](N4CCC(C(=O)NCCOCCOc5ccc(-n6c(O)nnc6-c6cc(CC)c(O)cc6O)cc5)CC4)CN3C)nc3c2CCN(c2cccc4cccc(Cl)c24)C3)C[C@@H]1CC#N ?
Response: < 100 nM

----------
target: HSP90a protein (Homo sapiens, UniProt P07900); construct: purchased BPS Bioscience 50298; test: HSP90α-binding fluorescent polarization (FP) assay, BODIPY-labeled RNK04010 probe; conditions: FP competition with RNK04010 (BODIPY-labeled), 5 nM, 300 min at 25° C.
In this section, each of the molecules is paired with its reported IC50.

Example cases with answers are listed next.
{"Molecule": "C=CC(=O)N1CCN(c2nc(NCCC(=O)N3CCC(CN4CCN(Cc5ccc(-n6c(C(=O)NCC(F)(F)F)nnc6-c6cc(C)c(O)cc6O)cc5)CC4)CC3)nc3c2CCN(c2cccc4ccccc24)C3)C[C@H]1CC#N [Compound 77, trifluoroacetic acid]", "Value Observed": "100 to 1000 nM"}
{"Molecule": "CC(=O)N1CCN(c2nc(NCCC(=O)N3CCN(Cc4ccc(CN(C)Cc5ccc(-n6c(C(=O)NCC(F)(F)F)nnc6-c6cc(C(C)C)c(O)cc6O)cc5)cc4)CC3)nc3c2CCN(c2cccc4ccccc24)C3)C[C@H]1CC#N [Compound 124, trifluoroacetic acid]", "Value Observed": "100 to 1000 nM"}
{"Molecule": "CCC(=O)N1CCN(c2nc(NCCC(=O)N3CCN(Cc4ccc5c(c4)CN(C(=O)c4cc(CC)c(O)cc4O)C5)CC3)nc3c2CCN(c2cc(O)cc4ccccc24)C3)CC1 [Compound 66, trifluoroacetic acid]", "Value Observed": "> 1000 nM"}
{"Molecule": "C=CC(=O)N1CCN(c2nc(OCCN3CCN(C(=O)C4CCN(Cc5ccc(-n6c(C(=O)NCC(F)(F)F)nnc6-c6cc(C(C)C)c(O)cc6O)cc5)CC4)CC3)nc3c2CCN(c2cccc4cccc(Cl)c24)C3)C[C@@H]1CC#N [Compound 206, trifluoroacetic acid]", "Value Observed": "< 100 nM"}

Prompt: Would you kindly share the measured IC50 for CCCc1cc(-c2nnc(O)n2-c2ccc(CNC(=O)CCNc3nc4c(c(N5CCN(C(=O)CC)CC5)n3)CCN(c3cc(O)cc5ccccc35)C4)cc2)c(O)cc1O [Compound 32, trifluoroacetic acid] ?
Response: > 1000 nM

Prompt: Would you kindly share the measured IC50 for C=CC(=O)N1CCN(c2nc(NCCC(=O)NCc3ccc(CN4CCC(Cc5ccc(-n6c(C(=O)NCC(F)(F)F)nnc6-c6cc(C(C)C)c(O)cc6O)cc5)CC4)cc3)nc3c2CCN(c2cc(O)cc4ccccc24)C3)CC1 [Compound 25, trifluoroacetic acid] ?
Response: < 100 nM

Prompt: Would you kindly share the measured IC50 for C=CC(=O)N1CCN(c2nc(OCC3CN(Cc4ccc(-n5c(O)nnc5-c5cc(C(C)C)c(O)cc5O)cc4)C3)nc3c2CCN(c2cccc4cccc(Cl)c24)C3)C[C@@H]1CC#N [Compound 231] ?
Response: < 100 nM

Prompt: Would you kindly share the measured IC50 for CCC(=O)N1CCN(c2nc(NCCC(=O)N3CCC(CN4CCN(Cc5ccc(-n6c(C(=O)NC(C)C(F)(F)F)nnc6-c6cc(CC)c(O)cc6O)cc5)CC4)CC3)nc3c2CCN(c2cc(O)cc4ccccc24)C3)CC1 (centres unmarked) [Compound 119, trifluoroacetic acid] ?
Response: 100 to 1000 nM

----------
target: HSP90a protein (Homo sapiens); construct: purchased BPS Bioscience 50298; assay: HSP90α-binding fluorescent polarization (FP) assay, BODIPY-labeled RNK04010 probe; conditions: FP competition with RNK04010 (BODIPY-labeled), 5 nM, 300 min at 25° C.
Assay Readout: IC50

Example cases with answers are listed next.
{"Molecule": "C=CC(=O)N1CCN(c2nc(NCCC(=O)NCC3CCN(C(=O)C4CCN(Cc5ccc(-n6c(O)nnc6-c6cc(C(C)C)c(O)cc6O)cc5)CC4)CC3)nc3c2CCN(c2cccc4ccccc24)C3)C[C@H]1CC#N [Compound 101, trifluoroacetic acid]", "Assay Readout": "IC50", "Value Observed": "< 100 nM"}
{"Molecule": "C=CC(=O)N1CCN(c2nc(OCCN3CCN(C(=O)C4CCN(Cc5ccc(-n6c(O)nnc6-c6cc(C(C)C)c(O)cc6O)cc5)CC4)CC3)nc3c2CCN(c2cccc4cccc(Cl)c24)C3)C[C@@H]1CC#N [Compound 192, trifluoroacetic acid]", "Assay Readout": "IC50", "Value Observed": "< 100 nM"}
{"Molecule": "C=CC(=O)N1CCN(c2nc(NCCC(=O)N3CCC(CN4CCN(Cc5ccc(-n6c(C(N)=O)nnc6-c6cc(CC)c(O)cc6O)cc5)CC4)CC3)nc3c2CCN(c2cccc4cccc(Cl)c24)C3)C[C@H]1CC#N [Compound 99, trifluoroacetic acid]", "Assay Readout": "IC50", "Value Observed": "100 to 1000 nM"}

Kindly review the next molecule as well.
Prompt: Would you kindly share the measured IC50 for C=CC(=O)N1CCN(c2nc(OC[C@@H]3C[C@H](C(=O)N4CCN(CCNC(=O)c5nnc(-c6cc(C(C)C)c(O)cc6O)n5-c5ccccc5)CC4)CN3C)nc3c2CCN(c2cccc4cccc(Cl)c24)C3)C[C@@H]1CC#N [Compound 343] ?
Response: < 100 nM

----------
In this section, each of the molecules is paired with its reported EC50.
test system: NCI-H358 human non-small cell lung cancer; assay: NCI-H358 CCK-8 proliferation assay; assay type: cell-based; conditions: NCI-H358 cells, 72 hr

Example cases with answers are listed next.
{"Smiles Repr": "C=CC(=O)N1CCN(c2nc(NCCC(=O)NCc3ccc(-n4c(O)nnc4-c4ccc(O)cc4O)cc3)nc3c2CCN(c2cccc4cccc(Cl)c24)C3)C[C@@H]1CC#N", "EC50": "> 1 µM"}
{"Smiles Repr": "CC(=O)N1CCN(c2nc(NCCC(=O)N3CCC(CN4CCC(Cc5ccc(-n6c(O)nnc6-c6cc(C(C)C)c(O)cc6O)cc5)CC4)CC3)nc3c2CCN(c2cc(O)cc4ccccc24)C3)CC1", "EC50": "> 1 µM"}
{"Smiles Repr": "CC(=O)N1CCN(c2nc(NCCC(=O)N3CCN(Cc4ccc(CN(C)Cc5ccc(-n6c(C(=O)NCC(F)(F)F)nnc6-c6cc(C(C)C)c(O)cc6O)cc5)cc4)CC3)nc3c2CCN(c2cc(O)cc4ccccc24)C3)CC1", "EC50": "0.1 to 1 µM"}

Prompt: Would you kindly share the measured EC50 for CC(=O)N1CCN(c2nc(NCCC(=O)N3CCC(Cc4ccc(CN(C)Cc5ccc(-n6c(C(=O)NCC(F)(F)F)nnc6-c6cc(C(C)C)c(O)cc6O)cc5)cc4)CC3)nc3c2CCN(c2cc(O)cc4ccccc24)C3)CC1 ?
Response: 0.1 to 1 µM

The reported measurements were obtained from patent US20230391772A1.
